Each entry below carries its recorded half-life.
# Test summary: Pharmacokinetics (oral bioavailability) in C57BL/6 mice
# Experimental conditions: mouse, in vivo
Answer format: numeric, min implied, no suffix.

Smiles text	half-life, min
O=C(NCCOCCO)c1ccc(-c2ccc(-c3cc4nc(O[C@@H]5CO[C@H]6[C@@H]5OC[C@H]6O)[nH]c4cc3Cl)cc2)cc1	102

# context switch: different compound, same half-life
Fill in: half-life of "OC[C@@H](O)[C@@H](O)[C@H](O)[C@@H](O)CNCc1ccc(-c2ccc(-c3nc4nc(O[C@@H]5CO[C@H]6[C@@H]5OC[C@H]6O)[nH]c4cc3Cl)cc2)cc1" is ___
84
